assay: physchem; conditions: LogPA (logP of the stated pure compound or, in a mixture, of the main isomer, 1-substituted 3-aryl-1H-pyrazole)
Returns: string. Value is Fulfilled if measured chromatographic logP is below 2, and Not fulfilled if it is greater than or equal to it.

# check: chromatographic logP < 2 for CC(C)C(=O)Nc1cc(-c2cn(C(C)C)nc2-c2ccc(F)cc2)ccn1
Not fulfilled

chromatographic logP strictly < 2 for this molecule? FC(F)(F)Oc1ccc(-c2c(-c3ccncc3)cnn2C2CCCCO2)cc1 (stereo not drawn)
Fulfilled

A record lists Clc1cccc(-c2nn(C3CCCCO3)cc2-c2ccnc3[nH]ccc23)c1 (stereo not drawn) . Is its chromatographic logP below 2?
Not fulfilled

Does CNC(=O)c1cc(-c2cn(C3CCCCO3)nc2-c2ccc(F)cc2)ccn1 (stereo not drawn) have chromatographic logP strictly under 2?
Not fulfilled

Given the entry Cc1cc(-c2c(-c3ccncc3)cnn2C2CCCCO2)ccc1F (stereo not drawn) , would its reported chromatographic logP be below 2?
Fulfilled

Below 2 on chromatographic logP? Entry c1ccc(Oc2ccc(-c3c(-c4ccncc4)cnn3C3CCCCO3)cc2)cc1 (stereo not drawn)
Fulfilled

Hello, I'm reviewing records and need to know if chromatographic logP of Clc1ccc(-c2c(-c3ccncc3)cnn2C2CCCCO2)cc1 (stereo not drawn) is below 2. Could you check?
Fulfilled

A record lists COc1ccc(-c2nn(C3CCCCO3)cc2-c2ncnc3[nH]ccc23)cc1 (stereo not drawn) . Is its chromatographic logP below 2?
Fulfilled

Hello, I'm reviewing records and need to know if chromatographic logP of Fc1ccc(-c2nn(Cc3ncc[nH]3)cc2-c2ccncc2)cc1 is below 2. Could you check?
Fulfilled

* * *

system: Fusarium proliferatum; test: Example I: production of fumonisin FB1 by Fusarium proliferatum (microtitre plates); format: cell-based; conditions: Fusarium proliferatum, 120 h, 5 days at 20° C., HPLC-MS/MS, read-out: % Inhibition der FB1 produktion bei 50 μM
readout.type: inhibition at 50 µM (%)
Enter your answer as a number in %; do not include the unit.

Using the record for CC(C)C(=O)Nc1cc(-c2cn(CCCl)nc2-c2ccc(F)cc2)ccn1 [Compound 222] , state its measured inhibition at 50 µM.
100

Tell me measured inhibition at 50 µM for COCC(=O)Nc1cc(-c2cn(CCCl)nc2-c2ccc(F)cc2)ccn1 [Compound 220] please.
100

Identify the reported inhibition at 50 µM for the following entry. CC(C)n1cc(-c2ccnc3ccccc23)c(-c2ccc(F)cc2)n1 [Compound 44]
100

Give me measured inhibition at 50 µM, please, for this compound: CC(C)C(=O)Nc1cc(-c2cn(CC(F)F)nc2-c2ccc(F)cc2)ccn1 [Compound 218]
100

Let me know recorded inhibition at 50 µM for CC(C)(C)C(=O)Nc1cc(-c2cn(C3CCCCO3)nc2-c2ccc(F)cc2)ccn1 (stereo not drawn) [Compound 41] , thanks.
100

Look up and state reported inhibition at 50 µM for CC(C)C(=O)Nc1cc(-c2cn(C(C)C)nc2-c2ccc(F)cc2)ccn1 [Compound 84]
100

Tell me inhibition at 50 µM reported for Fc1ccc(-c2nn(C3CCCCO3)cc2-c2ccnc3ccccc23)cc1 (stereo not drawn) [Compound 54]
100

Give the reported value of inhibition at 50 µM for this record: COCC(=O)Nc1cc(-c2cn(C3CCCCO3)nc2-c2ccc(F)cc2)ccn1 (stereo not drawn) [Compound 23]
100

Supply inhibition at 50 µM value. Item: CC(C)Cn1cc(-c2ccnc(NC(=O)C(C)C)n2)c(-c2ccc(F)cc2)n1 [Compound 189]
90

Answer with the recorded inhibition at 50 µM of COCC(=O)Nc1cc(-c2cn(CC(F)F)nc2-c2ccc(F)cc2)ccn1 [Compound 216] only.
100

Given the compound FC(F)(F)c1cccc(-c2nn(C3CCCCO3)cc2-c2ccnc3[nH]ccc23)c1 (stereo not drawn) [Compound 50] , write its reported inhibition at 50 µM.
89

State, in one line, measured inhibition at 50 µM of CCC(=O)Nc1cc(-c2cn(C(C)C)nc2-c2ccc(F)cc2)ccn1 [Compound 85]
100

Supply reported inhibition at 50 µM belonging to this compound: CCC(=O)Nc1cc(-c2cn(C3CCN(C(=O)OC(C)(C)C)CC3)nc2-c2ccc(F)cc2)ccn1 [Compound 193]
85

Tell me measured inhibition at 50 µM for c1ccc(Oc2ccc(-c3c(-c4ccncc4)cnn3C3CCCCO3)cc2)cc1 (stereo not drawn) [Compound 59] please.
95

Indicate its recorded inhibition at 50 µM; the compound in question is O=C(Nc1cc(-c2cn(CC3CC3)nc2-c2ccc(F)cc2)ccn1)C1CC1 [Compound 224]
100

In one line, give reported inhibition at 50 µM of the entry CC(C)Cn1cc(-c2ccncn2)c(-c2cccc(Cl)c2)n1 [Compound 5] .
100

State its inhibition at 50 µM: COCCn1cc(-c2ccnc(NC(=O)COC)c2)c(-c2ccc(F)cc2)n1 [Compound 163]
100

Give recorded inhibition at 50 µM. CCC(=O)Nc1cc(-c2cn(C3CCCCO3)nc2-c2ccc(F)cc2)ccn1 (stereo not drawn) [Compound 19]
100
